Cited source for all entries: PubChem BioAssay (NCI)

Reported TGI values are given for each entry in this list.
Test system: CCRF-CEM leukemia
Test: NCI tumour cell line growth inhibition, 48 h
Parameter Measured: TGI (µM)

* CCc1cc(Cc2cc(CC)c(NC(=O)C3=CC(=O)CC(c4ccc(OC)cc4)O3)c(CC)c2Cl)c(Cl)c(CC)c1NC(=O)C1=CC(=O)CC(c2ccc(OC)cc2)O1 (centres undefined) | 90.2
* NN/C(=N\S(=O)(=O)c1cc(Cl)c(Oc2ccc([N+](=O)[O-])cc2Cl)c(Cl)c1)Nc1ccc(Cl)cc1 | 37.5
* COc1ccc(-c2ccc(/C=N/n3cn[nH]c3=S)o2)c([N+](=O)[O-])c1 | 75.3
* COc1ccc(C2(CN(C)C)COc3cc(OC)c(OC)cc3C2=O)cc1OC (centres undefined) | 58.1
* O=C(CCN(CCO)CCO)Nc1ccc2c(c1)C(=O)c1ccc(NC(=O)CCN(CCO)CCO)cc1C2=O | 39.5

====

Tested on: MCF7 breast
Assay: NCI tumour cell line growth inhibition, 48 h
Reported GI50 values are given for each entry in this list.
Parameter Measured: GI50

* Cc1sc2ncnc(Sc3nc4ccccc4[nH]3)c2c1C | 13.6 µM
* CC(C)(C)Cn1c(N)nc2ccc(-c3[nH]c(C(C)(C)C)nc3-c3ccc(F)cc3)nc21 | 10.6 µM
* Cc1c(C(=O)/C=C/c2ccc(O)cc2)nnn1-c1ccnc2c(C(F)(F)F)cccc12 | 23.5 µM
* N#C/C(=C\c1cn(-c2ccccc2)c2ccccc12)C(=O)O | 27.4 µM
* COc1ccc(-c2ccc(/C=N/n3cn[nH]c3=S)o2)c([N+](=O)[O-])c1 | 25.4 µM

====

Tested on: DU-145 prostate
Test: NCI tumour cell line growth inhibition, 48 h
Parameter Measured: TGI (µM)

- NN/C(=N\S(=O)(=O)c1cc(Cl)c(Oc2ccc([N+](=O)[O-])cc2Cl)c(Cl)c1)Nc1ccc(Cl)cc1: 38.4
- Nc1cc(N)c2nc(-c3ccccc3)c(Nc3ccc(F)cc3)nc2c1: 28.3

====

System: COLO 205 colon
Test: NCI tumour cell line growth inhibition, 48 h
*1 amine or outer side, *2 acyl side, *3 side chain or, on linkers, in order; H or OH if unused. Where a SMILES comes first, the peptide text is derived from it. Bridges are numbered along the chain shown (N, C = ends). [ ]: non-standard residue; d: D form. ξ: configuration not given here. X4 = CCC(C)C(N[*:1])C(O)CC(=O)O[C@H](C(=O)C(C)C(=O)[*:2])C(C)C; NMeY = CN[C@@H](Cc1ccc(O)cc1)C(=O)O; X9 = O=C([C@@H]1CC(O)CN1[*:1])[*:2]; ξNMeL = CNC(CC(C)C)C(=O)O; ξT = CC(O)C(N)C(=O)O
Reported TGI values are given for each entry in this list.
Parameter Measured: TGI

- COc1ccc(-c2ccc(/C=N/n3cn[nH]c3=S)o2)c([N+](=O)[O-])c1: > 100 µM
- CCC(C)C1NC(=O)C(NC(=O)C(CC(C)C)N(C)C(=O)[C@@H]2CC(O)CN2)C(C)OC(=O)[C@H](Cc2ccc(OC)cc2)N(C)C(=O)[C@@H]2CCCN2C(=O)[C@H](CC(C)C)NC(=O)C(C)C(=O)[C@H](C(C)C)OC(=O)CC1O (stereo partly drawn) (H-[X9][ξNMeL][ξT][X4]LP[NMeY](Me); ester 3-C): 0.0156 µM
- O=C1/C(=C/c2cccc([N+](=O)[O-])c2)COc2ccccc21: > 100 µM

====

Reported GI50 values are given for each entry in this list.
System: TK-10 renal
Experiment: NCI tumour cell line growth inhibition, 48 h
Parameter Measured: GI50

- COc1ccc(Cl)cc1N1C(=O)C(Cl)=C(Nc2cccc(O)c2)C1=O: 11.3 µM
- COc1ccc(/C=C/C(=O)c2ccc(Nc3ncnc4ccccc34)cc2)cc1OC: 8.29 µM
- COC(=O)C1=CN(CC2=CC(=O)C(C)=CC2=O)C=C(C(=O)OC)C1c1cccc(OC)c1OC: 8.35 µM
- Nc1cc(N)c2nc(-c3ccccc3)c(Nc3ccc(F)cc3)nc2c1: 17.3 µM
- CC(C)(C)Cn1c(N)nc2ccc(-c3[nH]c(C(C)(C)C)nc3-c3ccc(F)cc3)nc21: 4.56 µM

====

Tested on: MALME-3M melanoma
Assay: NCI tumour cell line growth inhibition, 48 h
Reported TGI values are given for each entry in this list.
Parameter Measured: TGI (µM)

• O=C1/C(=C/c2cccc([N+](=O)[O-])c2)CCCc2ccccc21 = 22.2
• COc1n[n+]([O-])c(C)cc1[N+](=O)[O-] = 9.85
• CCN(CC)c1ccc(/C=C/C2=NN(c3cccc(S(=O)(=O)O)c3)C3(C2)C(Cl)C(=O)N3c2nc3ccccc3s2)cc1 (stereo not given) = 24.9
• Cc1c(C(=O)/C=C/c2ccc(O)cc2)nnn1-c1ccnc2c(C(F)(F)F)cccc12 = 75.3

====

Test system: OVCAR-4 ovarian
Experiment: NCI tumour cell line growth inhibition, 48 h
Parameter Measured: TGI

* CC1C(=O)N=C2C(=CN(Cc3ccccc3)c3ccccc32)C(=O)N1C (stereo not given) | > 100 µM
* O=[N+]([O-])c1cccc(-c2nc3sccn3c2-c2ccnc(NCCCNS(=O)(=O)c3ccc(F)cc3)n2)c1 | 6.55 µM
* COc1ccc(CSCc2cc(OC)c(OC)c(OC)c2)cc1 | > 100 µM
* O=C(CCN(CCO)CCO)Nc1ccc2c(c1)C(=O)c1ccc(NC(=O)CCN(CCO)CCO)cc1C2=O | > 100 µM
* Cc1ccc(NC(=O)c2ccnc(C(F)(F)F)c2)cc1-c1cc(OCCO)nc(N2CCOCC2)c1 | 21.5 µM
* COc1ccc(CCN2CCC(C#N)(c3ccc(OC)c(OC)c3)CC2)cc1OC | > 100 µM
* S=C(Nc1ccccc1)c1ccccn1 | > 100 µM
* CC(=O)Nc1ccc(-c2nnc(SCC(=O)Nc3ccccc3Cl)o2)cc1 | > 100 µM
* Oc1cn(-c2ccc(Cl)cc2)nc1-c1nnc(Nc2ccccc2)o1 | > 100 µM
* [N-]=[N+]=Nc1ncc(-c2ccc(C(F)(F)F)cc2)c(NC2CCCCCC2)n1 | > 10 µM
* CCCCCCCCCCCCCCCC(=O)NC1CCc2cc(O)c(O)c(O)c2-c2ccc(SC)c(=O)cc21 (stereo not given) | 28.9 µM
* Cn1c(=O)nc2n(CCO)c(-c3ccccc3)c(-c3ccccc3)nc-2c1=O | > 100 µM
* COc1ccc2c(c1)c(Cc1c(C)n(C)c3ccc(OC)cc13)c(C)n2C | > 100 µM
* CN(CCO)CC(=O)CC(O)(C(F)(F)F)C(F)(F)F | > 100 µM
* CSc1nc(=S)[nH]c2n[nH]c(C)c12 | > 100 µM

====

System: MDA-MB-435
Test: NCI tumour cell line growth inhibition, 48 h
Parameter Measured: TGI

- CCCCCCN(C(=O)Oc1ccccc1)C(C#N)c1ccccc1 (centres undefined): > 100 µM
- OCCNc1nc(NCCO)nc(Nc2ccc(C3=NN(c4cc(Cl)cc(Cl)c4)C(c4ccc(Cl)cc4)C3)cc2)n1 (centres undefined): 3.11 µM
- COc1ccc(-c2ccc(/C=N/n3cn[nH]c3=S)o2)c([N+](=O)[O-])c1: 44.8 µM
- CC1=NC(=Cc2ccc(Cl)cc2)C(=O)N1n1c(-c2ccccc2)nc2ccccc2c1=O: > 100 µM
- N#Cc1c(NC(=O)c2cccs2)[n+]([O-])c2ccccc2[n+]1[O-]: > 100 µM
- CCCCCCC(N)(CCCCCC)C(=O)Nn1c(C)ccc1C: > 100 µM
- C=CCOc1cc2c(cc1C(C)c1ccc(OC)cc1)OCO2 (centres undefined): 1.91 µM
- COc1cc(C)cc2c1OC(c1ccccc1)CC2=O (centres undefined): > 100 µM
- [N-]=[N+]=Nc1ncc(-c2ccc(C(F)(F)F)cc2)c(NC2CCCCCC2)n1: > 10 µM
- CCCOC(=O)c1cc(C(=CCC[C@H]2CC[C@@]3(C)[C@@H](CC[C@@H]4[C@@H]3CC[C@]3(C)[C@@H](C(C)CCCC(C)C)CC[C@@H]43)C2)c2cc(Cl)c(O)c(C(=O)OCCC)c2)cc(Cl)c1O (some centres undefined): > 50 µM
- Cn1c2ccccc2c2c(=O)n(CCCC(=O)NCC(=O)OC(=NC3CCCCC3)NC3CCCCC3)c3c(-c4ccccc4)nnn3c21: > 100 µM
- C[N+](C)(C)CC1Cc2ccccc2C1=O (centres undefined): > 10 µM
- O=[N+]([O-])c1cccc(-c2nc3sccn3c2-c2ccnc(NCCCNS(=O)(=O)c3ccc(F)cc3)n2)c1: 7.93 µM
- COc1ncnc2c(NC3OC(CO)C(O)C3O)ncnc12 (centres undefined): > 100 µM
- CC[C@@]1(O)C(=O)OCc2c1c(Cl)c1n(c2=O)Cc2cc3ccccc3nc2-1: > 100 µM
- C[C@]12CC[C@H]3[C@@H](CCC4=CC(=O)CC[C@@H]43)[C@@H]1CC[C@@H]2OC1(O)C(=O)c2ccccc2C1=O: > 100 µM
- O=c1c2cc(Br)ccc2oc2ccc(Br)cc12: > 100 µM
- N#Cc1cnn2c1n[n+]([O-])c1ccc(Cl)cc12: 26.4 µM
- CNC(=O)c1cc(Oc2ccc3nc(NC(=O)Nc4ccc(Cl)c(Cl)c4)sc3c2)ccn1: 4.62 µM
